Tested on: Enterococcus
assay_summary: Antibacterial activity vancomycin-resistant Enterococcus assessed as inhibition of bacterial growth incubated for 24 hrs by CLSI based analysis
Format: functional
reported_property: MIC (µg/mL)
# output: bare number, implied unit µg/mL

Observe how each entry below is paired with its result.
smiles_notation	unit_label	MIC
CN[C@H](CC(C)C)C(=O)N[C@H]1C(=O)N[C@@H](CC(N)=O)C(=O)N[C@H]2C(=O)N[C@H]3C(=O)N[C@H](C(=O)N[C@H](C(=O)O)c4cc(O)cc(O)c4-c4cc3ccc4O)[C@H](O)c3ccc(c(Cl)c3)Oc3cc2cc(c3O[C@@H]2O[C@H](CO)[C@@H](O)[C@H](O)[C@H]2O[C@H]2C[C@](C)(N)[C@H](O)[C@H](C)O2)Oc2ccc(cc2Cl)[C@H]1O	µg/mL	64
CC(C)CCCCC(=O)N[C@@H](CCN)C(=O)N[C@H](C(=O)N[C@@H](CCN)C(=O)N[C@H]1CCNC(=O)[C@H]([C@@H](C)O)NC(=O)[C@H](CCN)NC(=O)[C@H](CCN)NC(=O)[C@H](CC(C)C)NC(=O)[C@@H](Cc2ccccc2)NC(=O)[C@@H](CCN)NC1=O)[C@@H](C)O.O=S(=O)(O)O	µg/mL	128

Query: // returns reported MIC for input `C[C@@H](O)[C@H]1C(=O)N2C(C(=O)O)=C(S[C@@H]3CN[C@H](C(=O)N(C)C)C3)[C@H](C)[C@H]12`
Response: 8

Query: // returns reported MIC for input `CC(C)=CCc1c(-c2ccc(O)cc2O)oc2c3c(cc(O)c2c1=O)OC(C)(C)C=C3`
Response: 8

Query: // returns reported MIC for input `COc1cccc(OC)c1C(=O)N[C@@H]1C(=O)N2[C@@H]1SC(C)(C)[C@@H]2C(=O)[O-].[Na+]`
Response: 32

Provenance of the data: ChEMBL document CHEMBL5356966
